# assay-remarks: Pharmacokinetic study in healthy adults of single vs. multiple oral doses of colchicine tablets (Example 1)
# Type: in vivo, human
# test-conditions: human, plasma, po, 0.6 mg, multiple (b.i.d.) oral doses colchicine 0.6 mg for 10 days, Day 25, healthy adults N=13, median; read-out: Tmax, MEDIAN
measured-endpoint: Tmax (h)

>>> test_result("COc1cc2c(c(OC)c1OC)-c1ccc(OC)c(=O)cc1[C@@H](NC(C)=O)CC2")
1

====

# assay-remarks: Pharmacokinetic study in healthy adults of single vs. multiple oral doses of colchicine tablets (Example 1);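 also: Single-dose and multiple-dose periods given to the same subjects, with a 14-day washout between the two periods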
# Assay type: in vivo, human
# test-conditions: human, plasma, po, 0.6 mg, multiple (b.i.d.) oral doses colchicine 0.6 mg for 10 days, Day 25, healthy adults N=13, plasma, mean; read-out: Cmax, MEAN
measured-endpoint: Cmax (ng/mL)

>>> test_result("COc1cc2c(c(OC)c1OC)-c1ccc(OC)c(=O)cc1[C@@H](NC(C)=O)CC2")
3.55
